assay-method-text: Constant-force (CF) single-molecule optical tweezers folding assay of guanine-aptamer RNAs in guanine buffer
Format: physicochemical
condition-notes: transition BA (P1 folding); F 8.5 pN; 3 mM Mg^2+, 200 nM G

{"molecule": "m8: m8 mutant guanine sensing aptamer RNA (SEQ ID NO: 9); A19G and U77C in the P1 hairpin (nucleic acid, RNA, backbone and methylation of C not given here, A19G and U77C in the P1 hairpin) CACUCGUAUAAUCGCGUGGAUAUGGCACGCAAGUUUCUACCGGGCACCGUAAAUGUCCGACUACGGGUG", "Folding rate kf / s⁻¹": 0.4}
{"molecule": "wt: 69-nucleotide full-length wild-type guanine sensing aptamer RNA sequence from xpt-pbuX operon in B. subtilis (SEQ ID NO: 1) (nucleic acid, RNA, backbone and methylation of C not given here) CACUCAUAUAAUCGCGUGGAUAUGGCACGCAAGUUUCUACCGGGCACCGUAAAUGUCCGACUAUGGGUG", "Folding rate kf / s⁻¹": 0.4}
{"molecule": "m6: m6 mutant guanine sensing aptamer RNA (SEQ ID NO: 7); U67A, shorter P3 hairpin and larger L3 loop (nucleic acid, RNA, backbone and methylation of C not given here, U67A, shorter P3 hairpin and larger L3 loop) CACUCAUAUAAUCGCGUGGAUAUGGCACGCAAGUUUCUACCGGGCACCGUAAAAGUCCGACUAUGGGUG", "Folding rate kf / s⁻¹": 0.7}
{"molecule": "m4: m4 mutant guanine sensing aptamer RNA (SEQ ID NO: 5); A59G/U67C in the P3 hairpin (nucleic acid, RNA, backbone and methylation of C not given here, A59G/U67C in the P3 hairpin) CACUCAUAUAAUCGCGUGGAUAUGGCACGCAAGUUUCUACCGGGCGCCGUAAACGUCCGACUAUGGGUG", "Folding rate kf / s⁻¹": 0.33}
